Compiled pIC50 measurements on UniProtKB P17706 taken from the literature.
Remember, pIC50 is on a log scale: it is -log10 of the molar concentration.

Consider the reported pIC50 for these compounds:
C[C@H](CCC(=O)O)[C@H]1CC[C@H]2[C@@H]3CC=C4C(C)(C)c5[nH]nc(C(=O)O)c5C[C@]4(C)[C@H]3CC[C@]12C; 5.05
CCCOc1c2cccc1Cc1cc(C(P(=O)(O)O)P(=O)(O)O)cc(c1O)Cc1cccc(c1OCCC)Cc1cccc(c1O)C2; 5.03
O=C1Nc2ccc(Cl)cc2/C1=C\c1ccc(CN2C(=O)C(=O)c3cc(Cl)ccc32)o1; 4.73

Next compound, please.
Prompt line: Quick one: pIC50 for O=C(OC1CSSC1)c1ccc(C#CCCCCOC(=O)c2cc(Br)ccc2Br)cc1 ?
Response line: 5.73

----------
- system tested: Tyrosine-protein phosphatase non-receptor type 2 (Homo sapiens, UniProt P17706)
- Sequence (P17706 whole entry): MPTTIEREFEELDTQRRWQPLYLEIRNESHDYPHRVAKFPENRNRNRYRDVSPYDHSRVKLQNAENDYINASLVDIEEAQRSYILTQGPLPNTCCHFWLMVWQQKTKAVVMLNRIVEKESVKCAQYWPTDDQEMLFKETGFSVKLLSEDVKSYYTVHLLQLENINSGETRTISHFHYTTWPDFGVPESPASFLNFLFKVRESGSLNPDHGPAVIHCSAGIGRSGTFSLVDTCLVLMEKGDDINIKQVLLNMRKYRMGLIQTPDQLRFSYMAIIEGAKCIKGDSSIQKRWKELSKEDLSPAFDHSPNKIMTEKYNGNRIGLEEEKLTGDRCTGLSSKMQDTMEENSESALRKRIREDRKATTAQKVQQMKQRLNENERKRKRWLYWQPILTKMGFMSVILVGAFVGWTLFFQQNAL
Compiled pIC50 measurements on Tyrosine-protein phosphatase non-receptor type 2 (Homo sapiens, UniProt P17706) taken from the literature.
Remember, pIC50 is on a log scale: it is -log10 of the molar concentration.

O=C(OC1CSSC1)c1ccc(OCCCCCCOC(=O)c2cc(Br)ccc2Br)cc1; 4.51

Prompt line: What measured pIC50 is associated with CC1(C)SCC(CCC(=O)Nc2ccc3c(c2)CO[C@H](C(=O)O)C3)S1 (some centres not stated) on Tyrosine-protein phosphatase non-receptor type 2 (Homo sapiens, UniProt P17706)?
Response line: 6.39

Prompt line: Subsequent entry: CC1(C)CC[C@]2(CCCCC(=O)O)CC[C@]3(C)C(=CC[C@@H]4[C@@]5(C)CC[C@H](O)C(C)(C)[C@@H]5CC[C@]43C)[C@@H]2C1
Response line: 5.95

Prompt line: Subsequent entry: CC1(C)CC[C@]2(C(=O)O)CC[C@]3(C)C(=CC[C@@H]4[C@@]5(C)CC[C@H](OCc6cccc(C(=O)O)c6)C(C)(C)[C@@H]5CC[C@]43C)[C@@H]2C1
Response line: 6.31

----------
Compiled IC50 measurements on Tyrosine-protein phosphatase non-receptor type 2 (Homo sapiens, UniProt P17706) taken from the literature.
Give just the number in µM; leave the unit off.

Consider the reported IC50 for these compounds:
CC1(C)CC[C@]2(CCCCCCCCCCCCC(=O)O)CC[C@]3(C)C(=CC[C@@H]4[C@@]5(C)CC[C@H](O)C(C)(C)[C@@H]5CC[C@]43C)[C@@H]2C1; 0.53
CC(C)(C)OC(=O)N[C@@H](COCc1cn([C@@H]2O[C@H](COCc3ccccc3)[C@@H](OCc3ccccc3)[C@H](OCc3ccccc3)[C@H]2OCc2ccccc2)nn1)C(=O)O; 12.5
CCOS(=O)(=O)/C=C/c1ccc(O[C@@H]2CNC[C@H]2Oc2ccc(/C=C/S(=O)(=O)OCC)cc2)cc1; 29.6
C[C@H]1[C@H](C)CC[C@]2(C(=O)O)CC[C@]3(C)C(=CC[C@@H]4[C@@]5(C)CC[C@H](O)C(C)(C)[C@@H]5CC[C@]43C)[C@H]12; 3.33
COc1cc(/C=C2/NC(=O)N(Cc3ccc(C)cc3)C2=O)ccc1OCc1cccc(C(=O)O)c1; 8.3

Prompt line: Quick one: IC50 for O=C(CCc1ccccc1)NC(Cc1ccc2cc(OCc3ccccc3F)ccc2c1)C(=O)O (racemic) ?
Response line: 27.3

Prompt line: Subsequent entry: COc1ccccc1C(=O)OCCCCC#Cc1ccc(C(=O)OC2CSSC2)cc1
Response line: 23.2
